Reference source for all entries: PubChem BioAssay (NCI)

Test: NCI Yeast Anticancer Drug Screen. Data for the bub3 strain (AID 167)
Details: S. cerevisiae bub3 mutant strain, at 50.0 µM (retest, dose inferred, filed as 5.0)
Compounds without any hit were thinned out: in the full panel of roughly 79,000, 15% have a hit. Calls of active or inactive are those of the source. Cut-off read from the data, not from the text of the source: active = growth inhibition above about 70%; inactive = the rest.
Select the correct class. Options are 1.0 (active), 0.0 (inactive) and nothing else.

Solved cases (3 shown):
Compound	Qualitative label
CC(C)Cn1cnc2c(SCc3cccc(F)c3)nc(N)nc21	0.0
Cc1ccc(N=Nc2c(-c3ccccc3)nn(C(=S)S)c2-c2ccccc2)cc1	1.0
COC(=O)CCC(=O)c1ccc2c(c1)CC1(Cc3ccccc3C1)C2	0.0

q: Outcome logged for COc1ccc(OC2OC(COC(c3ccccc3)(c3ccc(OC)cc3)c3ccc(OC)cc3)C(O)C(O)C2O)cc1 (stereo not given) in this assay:
a: 1.0

q: Thanks! And CC[N+]1(C)CC2CCC(CC2)C1 (stereo not given) ?
a: 0.0
